Each entry below carries its measured pIC50, system: Heat shock cognate 71 kDa protein (Homo sapiens, UniProt P11142).
Sequence (P11142 whole entry): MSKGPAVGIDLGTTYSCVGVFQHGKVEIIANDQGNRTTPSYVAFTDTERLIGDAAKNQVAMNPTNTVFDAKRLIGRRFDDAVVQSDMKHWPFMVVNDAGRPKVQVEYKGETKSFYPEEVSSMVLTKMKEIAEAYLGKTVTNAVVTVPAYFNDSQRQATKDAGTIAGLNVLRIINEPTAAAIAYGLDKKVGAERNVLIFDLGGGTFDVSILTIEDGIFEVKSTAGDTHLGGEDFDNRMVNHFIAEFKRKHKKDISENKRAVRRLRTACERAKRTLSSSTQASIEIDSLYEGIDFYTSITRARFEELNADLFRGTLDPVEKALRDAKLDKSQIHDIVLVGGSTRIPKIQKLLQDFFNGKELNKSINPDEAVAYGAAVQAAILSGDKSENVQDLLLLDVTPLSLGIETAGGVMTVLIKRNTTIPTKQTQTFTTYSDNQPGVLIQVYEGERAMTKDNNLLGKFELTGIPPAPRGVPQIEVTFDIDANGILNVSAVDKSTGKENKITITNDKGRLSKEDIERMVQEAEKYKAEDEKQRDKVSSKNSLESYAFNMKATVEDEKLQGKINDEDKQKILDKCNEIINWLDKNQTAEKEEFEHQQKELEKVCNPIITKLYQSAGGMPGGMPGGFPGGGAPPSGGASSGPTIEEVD
pIC50: −log10 of the molar value.

>  <molecule>
C=c1[nH]n(-c2cccc(C(=O)O)c2)c(=O)c1=CC=Cc1ccco1 [SMR000113614]

>  <pIC50>
3.00

$$$$
>  <molecule>
CC(=O)N1CCC2(CC1)c1c(n[nH]c1C)OC(=N)C2C#N (configuration not stated)

>  <pIC50>
3.00

$$$$
